The reported measurements were obtained from patent US12692248B2.

# Assay Text: Thermodynamic solubility in 13 solvents at RT and 50° C. by UPLC
# Assay type: physicochemical
# Recorded Conditions: MIBK, 50 °C, organic solvent or mixture, thermodynamic from solid, MIBK, 50° C.; read-out: Solubility at 50° C.(mg/mL)
Measured Metric: solubility

> print(dat)
                                  structure  measured.metric      result
1  Cc1ccc(NC(=O)N2CC[C@@H](CC(F)(F)F)C2)cc1-c1cc(N[C@H](C)CO)nc(N2CCOCC2)c1.Cl       solubility  0.11 mg/mL

====

# Assay Text: Thermodynamic solubility in 13 solvents at RT and 50° C. by UPLC
# Assay type: physicochemical
# Recorded Conditions: acetone, organic solvent or mixture, thermodynamic from solid, Acetone, RT; read-out: Solubility at RT
Measured Metric: solubility (µg/mL)

> print(dat)
                                  structure  readout.unit  numeric.value
1  Cc1ccc(NC(=O)N2CC[C@@H](CC(F)(F)F)C2)cc1-c1cc(N[C@H](C)CO)nc(N2CCOCC2)c1.Cl         µg/mL            650
